biological target: Cyclin-dependent kinase 4/cyclin D1 (Homo sapiens, UniProt P11802); experiment: Inhibition of CDK4/Cyclin-D1 (unknown origin) using histone-H1 as substrate after 90 mins by ADP-Glo assay
Sequence (P11802 whole entry): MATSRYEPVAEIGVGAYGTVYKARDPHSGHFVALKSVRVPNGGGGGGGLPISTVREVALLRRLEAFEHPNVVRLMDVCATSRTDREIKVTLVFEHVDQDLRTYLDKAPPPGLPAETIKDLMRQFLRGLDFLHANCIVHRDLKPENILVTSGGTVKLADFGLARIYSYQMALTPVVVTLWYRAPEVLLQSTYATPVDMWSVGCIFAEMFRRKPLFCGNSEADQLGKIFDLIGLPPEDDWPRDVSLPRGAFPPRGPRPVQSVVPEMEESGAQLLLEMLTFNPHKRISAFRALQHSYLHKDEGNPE
Sequence (P24385 whole entry, further chain): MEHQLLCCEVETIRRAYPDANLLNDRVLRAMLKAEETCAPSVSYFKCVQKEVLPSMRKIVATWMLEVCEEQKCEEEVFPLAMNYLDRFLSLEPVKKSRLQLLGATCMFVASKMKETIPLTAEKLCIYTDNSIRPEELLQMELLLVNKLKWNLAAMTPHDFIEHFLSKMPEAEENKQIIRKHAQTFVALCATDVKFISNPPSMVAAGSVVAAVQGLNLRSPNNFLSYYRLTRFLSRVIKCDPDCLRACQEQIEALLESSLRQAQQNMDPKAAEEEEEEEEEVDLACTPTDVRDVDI
Measurement Label: IC50 (nM)
Write the number in nM without appending the unit.

Worked cases, IC50 given:
{"Compound": "CCC1(C)C(C)=Nc2ccc(-c3nc(Nc4ccc(C5CCN(C)CC5)cn4)ncc3F)cc21 (centres undefined)", "Reported": 18}
{"Compound": "CCC1(C)C(C)=Nc2c(F)cc(-c3nc(Nc4ccc(N5CCNCC5)cn4)ncc3F)cc21 (centres undefined)", "Reported": 44}
{"Compound": "CC1=Nc2ccc(-c3nc(Nc4ccc(N5CCN(C)CC5)cn4)ncc3F)cc2C12CCCC2", "Reported": 15}
{"Compound": "CC1=Nc2ccc(-c3nc(Nc4ccc(N5CCNCC5)cn4)ncc3F)cc2C12CCCC2", "Reported": 4}
{"Compound": "CCC1(C)C(C)=Nc2c(F)cc(-c3nc(Nc4ccc(N5CCN(C)CC5)cn4)ncc3F)cc21 (centres undefined)", "Reported": 6}

Note: attention shifts to another entry.
Ask: Respond only with IC50 recorded for "CCC1(CC)C(C)=Nc2c(F)cc(-c3nc(Nc4ccc(N5CCNCC5)cn4)ncc3F)cc21"
Result: 3

* * *

assay: Half life in CD-1 mouse brain at 10 mg/kg, po administered as single dose by LC-MS/MS analysis; assay type: ADME, organism-based
Measurement Label: half-life (h)
Write the number in h without appending the unit.

Ask: Respond only with half-life recorded for CC1=Nc2c(F)cc(-c3nc(Nc4ccc(C5CCN(C)CC5)cn4)ncc3F)cc2C12CCCC2 [CROZBACICLIB]
Result: 6.38

* * *

Property: clearance; scope: individual molecules
assay: Clearance in Sprague-Dawley rat at 2 mg/kg, iv administered as single dose by LC-MS/MS analysis; assay type: ADME, organism-based; settings: in vivo
Write the number in mL/min/kg without appending the unit.

Worked cases, clearance given:
{"Molecule": "CCN1CCN(Cc2ccc(Nc3ncc(F)c(-c4cc(F)c5c(c4)C4(CCCC4)C(C)=N5)n3)nc2)CC1", "Display Unit": "mL/min/kg", "clearance": 48.9}
{"Molecule": "CCC1(C)C(C)=Nc2c(F)cc(-c3nc(Nc4ccc(N5CCNCC5)cn4)ncc3F)cc21 (centres undefined)", "Display Unit": "mL/min/kg", "clearance": 125}
{"Molecule": "CCN1CCC(c2ccc(Nc3ncc(F)c(-c4cc(F)c5c(c4)C4(CCCC4)C(C)=N5)n3)nc2)CC1", "Display Unit": "mL/min/kg", "clearance": 10.8}
{"Molecule": "CC1=Nc2c(F)cc(-c3nc(Nc4ccc(C5CCNCC5)cn4)ncc3F)cc2C12CCCC2", "Display Unit": "mL/min/kg", "clearance": 24.6}
{"Molecule": "CC1=Nc2c(F)cc(-c3nc(Nc4ccc(N5CCNCC5)cn4)ncc3F)cc2C12CCCC2", "Display Unit": "mL/min/kg", "clearance": 34.7}

Ask: Respond only with clearance recorded for CCC1(C)C(C)=Nc2c(F)cc(-c3nc(Nc4ccc(C5CCN(C)CC5)cn4)ncc3F)cc21 (centres undefined)
Result: 77.8

Ask: Respond only with clearance recorded for "CC1=Nc2c(F)cc(-c3nc(Nc4ccc(N5CCN(C)CC5)cn4)ncc3F)cc2C12CCCC2"
Result: 42.3

Ask: Respond only with clearance recorded for CCC1(C)C(C)=Nc2c(F)cc(-c3nc(Nc4ccc(N5CCN(C)CC5)cn4)ncc3F)cc21 (centres undefined)
Result: 69.2

Ask: Respond only with clearance recorded for "CCC1(CC)C(C)=Nc2c(F)cc(-c3nc(Nc4ccc(N5CCNCC5)cn4)ncc3F)cc21"
Result: 125

Ask: Respond only with clearance recorded for "CCN1CCN(c2ccc(Nc3ncc(F)c(-c4ccc5c(c4)C4(CCCC4)C(C)=N5)n3)nc2)CC1"
Result: 16.9

Ask: Respond only with clearance recorded for "CC1=Nc2c(F)cc(-c3nc(Nc4ccc(C5CCN(C)CC5)cn4)ncc3F)cc2C12CCCC2"
Result: 34.9

Ask: Respond only with clearance recorded for "CCN1CCN(c2ccc(Nc3ncc(F)c(-c4cc(F)c5c(c4)C4(CCCC4)C(C)=N5)n3)nc2)CC1"
Result: 15

Ask: Respond only with clearance recorded for "CC1=Nc2ccc(-c3nc(Nc4ccc(N5CCNCC5)cn4)ncc3F)cc2C12CCCC2"
Result: 28.3

Ask: Respond only with clearance recorded for CCN1CCN(Cc2ccc(Nc3ncc(F)c(-c4cc(F)c5c(c4)C(C)(CC)C(C)=N5)n3)nc2)CC1 (centres undefined)
Result: 50.7
